procedureDetails: Repeat once-weekly IV dose toxicokinetics in dogs
Assay type: in vivo
conditions: female, dog, in vivo, iv, 13.9 mg/kg, dogs F, 13.9 mg/kg once-weekly IV, Day 0; read-out: T1/2 (converted)
Experimental: Overall, drug concentrations increased with ascending dose, noting that the mean profiles at the two highest dose levels were overlapping. Systemic exposure (AUClast) to pafolacianine was approximately dose-proportional over the range of doses administered (0.9 to 13.9 mg/kg) and within the observed variability (Table 5). […] On both Day 0 and Day 13, CL was slow (relative to hepatic blood flow) and Vss was moderate. Mean T1/2 ranged from approximately 13 to 18 hours.
parameter: half-life (h)

CC1(C)C(=CC=C2CCCC(C=CC3=[N+](CCCCS(=O)(=O)[O-])c4ccc(S(=O)(=O)O)cc4C3(C)C)=C2Oc2ccc(CC(NC(=O)c3ccc(NCc4cnc5nc(N)[nH]c(=O)c5n4)cc3)C(=O)O)cc2)N(CCCCS(=O)(=O)O)c2ccc(S(=O)(=O)O)cc21 (stereo not shown) : 15.3

----------
procedureDetails: Repeat once-weekly IV dose toxicokinetics in dogs
Type: in vivo
conditions: female, dog, in vivo, iv, 9.3 mg/kg, dogs F, 9.3 mg/kg once-weekly IV, Day 13
parameter: C0 (µg/mL)

CC1(C)C(=CC=C2CCCC(C=CC3=[N+](CCCCS(=O)(=O)[O-])c4ccc(S(=O)(=O)O)cc4C3(C)C)=C2Oc2ccc(CC(NC(=O)c3ccc(NCc4cnc5nc(N)[nH]c(=O)c5n4)cc3)C(=O)O)cc2)N(CCCCS(=O)(=O)O)c2ccc(S(=O)(=O)O)cc21 (stereo not shown) : 67.8

----------
procedureDetails: Phase 1a pharmacokinetics in healthy volunteers, single IV administration
Format: in vivo, human
conditions: human, plasma, intravenous, 0.025 to 0.2 mg/kg; read-out: half-life values range
parameter: half-life

CC1(C)C(=CC=C2CCCC(C=CC3=[N+](CCCCS(=O)(=O)[O-])c4ccc(S(=O)(=O)O)cc4C3(C)C)=C2Oc2ccc(CC(NC(=O)c3ccc(NCc4cnc5nc(N)[nH]c(=O)c5n4)cc3)C(=O)O)cc2)N(CCCCS(=O)(=O)O)c2ccc(S(=O)(=O)O)cc21 (stereo not shown) [pafolacianine] : 0.4 to 2.7 h

----------
procedureDetails: Repeat once-weekly IV dose toxicokinetics in rats
Assay type: in vivo
conditions: female, rat, in vivo, iv, 46.3 mg/kg, rats F, 46.3 mg/kg once-weekly IV, Day 13
parameter: AUC(0-inf) (µg·h/mL)

CC1(C)C(=CC=C2CCCC(C=CC3=[N+](CCCCS(=O)(=O)[O-])c4ccc(S(=O)(=O)O)cc4C3(C)C)=C2Oc2ccc(CC(NC(=O)c3ccc(NCc4cnc5nc(N)[nH]c(=O)c5n4)cc3)C(=O)O)cc2)N(CCCCS(=O)(=O)O)c2ccc(S(=O)(=O)O)cc21 (stereo not shown) [pafolacianine] : 387

----------
procedureDetails: Repeat once-weekly IV dose toxicokinetics in rats
Format: in vivo
conditions: female, rat, in vivo, iv, 3.1 mg/kg, rats F, 3.1 mg/kg once-weekly IV, Day 0
parameter: AUC(0-inf) (ng·h/mL)

CC1(C)C(=CC=C2CCCC(C=CC3=[N+](CCCCS(=O)(=O)[O-])c4ccc(S(=O)(=O)O)cc4C3(C)C)=C2Oc2ccc(CC(NC(=O)c3ccc(NCc4cnc5nc(N)[nH]c(=O)c5n4)cc3)C(=O)O)cc2)N(CCCCS(=O)(=O)O)c2ccc(S(=O)(=O)O)cc21 (stereo not shown) : 19100

----------
procedureDetails: Single IV dose toxicokinetics in dogs
Assay type: in vivo
conditions: dog, in vivo; female dogs, 9.3 mg/kg single IV, Study Day 0
parameter: C0 (µg/mL)

CC1(C)C(=CC=C2CCCC(C=CC3=[N+](CCCCS(=O)(=O)[O-])c4ccc(S(=O)(=O)O)cc4C3(C)C)=C2Oc2ccc(CC(NC(=O)c3ccc(NCc4cnc5nc(N)[nH]c(=O)c5n4)cc3)C(=O)O)cc2)N(CCCCS(=O)(=O)O)c2ccc(S(=O)(=O)O)cc21 (stereo not shown) [pafolacianine] : 61.5

----------
procedureDetails: Repeat once-weekly IV dose toxicokinetics in dogs
Format: in vivo
conditions: female, dog, in vivo, iv, 0.9 mg/kg, dogs F, 0.9 mg/kg once-weekly IV, Day 13
Protocol: Overall, drug concentrations increased with ascending dose, noting that the mean profiles at the two highest dose levels were overlapping. Systemic exposure (AUClast) to pafolacianine was approximately dose-proportional over the range of doses administered (0.9 to 13.9 mg/kg) and within the observed variability (Table 5). […] On both Day 0 and Day 13, CL was slow (relative to hepatic blood flow) and Vss was moderate. Mean T1/2 ranged from approximately 13 to 18 hours.
parameter: clearance (mL/min/kg)

CC1(C)C(=CC=C2CCCC(C=CC3=[N+](CCCCS(=O)(=O)[O-])c4ccc(S(=O)(=O)O)cc4C3(C)C)=C2Oc2ccc(CC(NC(=O)c3ccc(NCc4cnc5nc(N)[nH]c(=O)c5n4)cc3)C(=O)O)cc2)N(CCCCS(=O)(=O)O)c2ccc(S(=O)(=O)O)cc21 (stereo not shown) : 1.8

----------
procedureDetails: Plasma protein binding, equilibrium dialysis, dog plasma
Type: in vitro ADME
conditions: Beagle, read-out: mean (±SD) percentage of plasma protein bound (converted)
parameter: fraction unbound at 5 μM

CC1(C)C(=CC=C2CCCC(C=CC3=[N+](CCCCS(=O)(=O)[O-])c4ccc(S(=O)(=O)O)cc4C3(C)C)=C2Oc2ccc(CC(NC(=O)c3ccc(NCc4cnc5nc(N)[nH]c(=O)c5n4)cc3)C(=O)O)cc2)N(CCCCS(=O)(=O)O)c2ccc(S(=O)(=O)O)cc21 (stereo not shown) [pafolacianine] : 0.014

----------
procedureDetails: Repeat once-weekly IV dose toxicokinetics in rats
Assay type: in vivo
conditions: male, rat, in vivo, iv, 30.8 mg/kg, rats M, 30.8 mg/kg once-weekly IV, Day 13
parameter: C0 (µg/mL)

CC1(C)C(=CC=C2CCCC(C=CC3=[N+](CCCCS(=O)(=O)[O-])c4ccc(S(=O)(=O)O)cc4C3(C)C)=C2Oc2ccc(CC(NC(=O)c3ccc(NCc4cnc5nc(N)[nH]c(=O)c5n4)cc3)C(=O)O)cc2)N(CCCCS(=O)(=O)O)c2ccc(S(=O)(=O)O)cc21 (stereo not shown) : 202

----------
procedureDetails: Repeat once-weekly IV dose toxicokinetics in rats
Format: in vivo
conditions: female, rat, in vivo, iv, 46.3 mg/kg, rats F, 46.3 mg/kg once-weekly IV, Day 13
parameter: C0 (µg/mL)

CC1(C)C(=CC=C2CCCC(C=CC3=[N+](CCCCS(=O)(=O)[O-])c4ccc(S(=O)(=O)O)cc4C3(C)C)=C2Oc2ccc(CC(NC(=O)c3ccc(NCc4cnc5nc(N)[nH]c(=O)c5n4)cc3)C(=O)O)cc2)N(CCCCS(=O)(=O)O)c2ccc(S(=O)(=O)O)cc21 (stereo not shown) : 240

----------
procedureDetails: Repeat once-weekly IV dose toxicokinetics in dogs
Assay type: in vivo
conditions: female, dog, in vivo, iv, 0.9 mg/kg, dogs F, 0.9 mg/kg once-weekly IV, Day 0
Description: Overall, drug concentrations increased with ascending dose, noting that the mean profiles at the two highest dose levels were overlapping. Systemic exposure (AUClast) to pafolacianine was approximately dose-proportional over the range of doses administered (0.9 to 13.9 mg/kg) and within the observed variability (Table 5). […] On both Day 0 and Day 13, CL was slow (relative to hepatic blood flow) and Vss was moderate. Mean T1/2 ranged from approximately 13 to 18 hours.
parameter: AUC(0-t) (ng·h/mL)

CC1(C)C(=CC=C2CCCC(C=CC3=[N+](CCCCS(=O)(=O)[O-])c4ccc(S(=O)(=O)O)cc4C3(C)C)=C2Oc2ccc(CC(NC(=O)c3ccc(NCc4cnc5nc(N)[nH]c(=O)c5n4)cc3)C(=O)O)cc2)N(CCCCS(=O)(=O)O)c2ccc(S(=O)(=O)O)cc21 (stereo not shown) : 8400

----------
procedureDetails: Repeat once-weekly IV dose toxicokinetics in dogs
Assay type: in vivo
conditions: female, dog, in vivo, iv, 13.9 mg/kg, dogs F, 13.9 mg/kg once-weekly IV, Day 0
parameter: C0

CC1(C)C(=CC=C2CCCC(C=CC3=[N+](CCCCS(=O)(=O)[O-])c4ccc(S(=O)(=O)O)cc4C3(C)C)=C2Oc2ccc(CC(NC(=O)c3ccc(NCc4cnc5nc(N)[nH]c(=O)c5n4)cc3)C(=O)O)cc2)N(CCCCS(=O)(=O)O)c2ccc(S(=O)(=O)O)cc21 (stereo not shown) : 79.6 µg/mL

----------
procedureDetails: Phase 1a pharmacokinetics in healthy volunteers, single IV administration
Assay type: in vivo, human
conditions: human, plasma, intravenous, 0.025 mg/kg, in 220 ml 5% dextrose, 60-min infusion; read-out: Cmax
parameter: Cmax (ng/mL)

CC1(C)C(=CC=C2CCCC(C=CC3=[N+](CCCCS(=O)(=O)[O-])c4ccc(S(=O)(=O)O)cc4C3(C)C)=C2Oc2ccc(CC(NC(=O)c3ccc(NCc4cnc5nc(N)[nH]c(=O)c5n4)cc3)C(=O)O)cc2)N(CCCCS(=O)(=O)O)c2ccc(S(=O)(=O)O)cc21 (stereo not shown) : 59.1

This collection of values is drawn from patent US11986540B2.
